# assayed.target: Cytochrome P450 2D6 (Homo sapiens)
# assay: Cytochrome panel assay with activity outcomes
# condition.parameters: recombinant CYP, pro-luciferin dealkylation, luminescence, p450-cyp2d6; series mostly up to 57.1 µM
About 2,600 (16%) of roughly 16,000 compounds were called active. About 20% were inconclusive and are not listed. The list comes from a sample in which actives are over-represented; it also holds close analogues and randomly drawn compounds.
experimental.endpoint: AC50

1) CCC12CN3CC(CC)(CN(C1)C3c1cccnc1)C2=O (stereo not given) ... inactive
2) CC(=O)OCC(=O)[C@@H]1CC[C@H]2[C@H]3CC[C@H]4C[C@@H](O)CC[C@]4(C)[C@@H]3C(=O)C[C@@]12C ... inactive
3) O=C(Oc1ccccc1)N1CCC2(CCN(Cc3nccs3)CC2)CC1 ... inactive
4) CC[C@H](C)[C@@H]1O[C@]2(CC[C@@H]1C)C[C@H]1C[C@H](CC=C(C)[C@@H](O[C@@H]3C[C@H](OC)[C@H](O[C@@H]4C[C@H](OC)[C@H](O)[C@H](C)O4)[C@H](C)O3)[C@@H](C)C=CC=C3CO[C@@H]4[C@@H](O)C(C)=C[C@@H](C(=O)O1)[C@]34O)O2 ... inactive
5) C[C@H](N)Cc1c[nH]c2ccc(OCc3cccs3)cc12 ... 794 nM (active)
6) COC(=O)[C@@]1(Cc2ccc(F)cc2)[C@H]2c3cc(C(=O)N(C)C)[nH]c3C[C@H]2CN1C(=O)c1ccccc1 ... inactive
7) CCCC(CCC)C(=O)O ... inactive
8) CCCCn1c(N)c(C(=O)NCc2cccs2)c2nc3ccccc3nc21 ... 20000 nM (active)
9) COc1ccc2[nH]cc(CCN)c2c1 ... inactive
10) NC(=O)CN1CCCC1=O ... inactive
11) O[Si@](CCCN1CCCCC1)(c1ccc(F)cc1)C1CCCCC1 ... 501 nM (active)
12) COc1cc(-c2ccc(=O)[nH]n2)ccc1OC(F)F ... inactive
13) O=C(O)[C@H]1C[C@@H]1[C@H](NP(=O)(c1ccccc1)c1ccccc1)c1ccccc1 ... inactive
14) COc1ccc(C(=O)c2c(C)n(CCN3CCOCC3)c3cc(I)ccc23)cc1 ... inactive
15) CN1CCc2nc3ccc(F)cc3c(C(N)=O)c2C1 ... inactive

###

# assayed.target: Cytochrome P450 2D6 (Homo sapiens) (UniProt P10635)
# Sequence (P10635 whole entry, looked up): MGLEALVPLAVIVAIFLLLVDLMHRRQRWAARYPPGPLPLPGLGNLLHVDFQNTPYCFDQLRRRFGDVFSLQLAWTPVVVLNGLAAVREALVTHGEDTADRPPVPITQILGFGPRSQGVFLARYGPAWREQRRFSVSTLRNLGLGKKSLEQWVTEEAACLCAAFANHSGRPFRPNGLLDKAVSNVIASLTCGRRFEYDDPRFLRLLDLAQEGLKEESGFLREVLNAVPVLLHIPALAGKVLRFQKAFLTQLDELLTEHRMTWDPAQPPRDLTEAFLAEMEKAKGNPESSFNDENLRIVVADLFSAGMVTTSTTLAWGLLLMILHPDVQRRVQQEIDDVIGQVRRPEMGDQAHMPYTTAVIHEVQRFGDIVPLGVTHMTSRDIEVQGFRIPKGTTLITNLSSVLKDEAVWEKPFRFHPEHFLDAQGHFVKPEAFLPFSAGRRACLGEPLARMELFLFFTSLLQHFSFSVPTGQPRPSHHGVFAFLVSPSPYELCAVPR
# assay: Cytochrome panel assay with activity outcomes
# condition.parameters: recombinant CYP, pro-luciferin dealkylation, luminescence, p450-cyp2d6; series mostly up to 57.1 µM
About 2,600 (16%) of roughly 16,000 compounds were called active. Not shown: some 20% with an inconclusive outcome. The call rests on the fitted dose curve; in most records, active means well fitted curve in the direction sought with a large enough effect; inconclusive means small, poorly fitted or top-dose-only effect, or effect the other way; inactive means no such curve, though single readings can be large or run the other way. The entries come from a sample that favours actives as a whole.
Possible outcomes: yes = active, no = inactive

1) COc1ccccc1N1CCNCC1 ... no
2) c1ccc2c(N3CCNCC3)cccc2c1 ... yes
3) CCCCn1c(O)c(C(CC)=Nc2ccc(OC)cc2OC)c(=O)[nH]c1=O ... yes
4) COc1ccc(NC(=O)N2CC[C@@]3(CCCN(C(=O)Oc4ccccc4)C3)C2)cc1 ... yes

###

# assayed.target: Cytochrome P450 2D6 (Homo sapiens) (UniProt P10635)
# assay: Cytochrome panel assay with activity outcomes
# condition.parameters: recombinant CYP, pro-luciferin dealkylation, luminescence, p450-cyp2d6; series mostly up to 57.1 µM
Among all 16,000 compounds or so, about 2,600 (16%) were called active. About 20% were inconclusive and are not listed. Calls follow the shape of the dose curve; as a rule, active = well fitted curve in the direction sought with a large enough effect; inconclusive = small, poorly fitted or top-dose-only effect, or effect the other way; inactive = no such curve, though single readings can be large or run the other way. What follows is part of a selection rich in actives, with near analogues and random picks from the rest.
Outcomes: yes (active), no (inactive)

1) O=C(C[n+]1ccc2ccccc2c1)c1ccc2ccc3ccccc3c2c1 ... yes
2) CCCCc1nc2ccccc2c(=O)n1-c1ccc(Cl)cc1[N+](=O)[O-] ... no
3) COC1=CC(=O)O[C@@H](/C=C\c2ccccc2)C1 ... no
4) c1ccc(C[C@@H](c2ccccc2)N2CCCCC2)cc1 ... yes
5) CCN1C[C@@]2(COC)CC[C@H](OC)[C@]34[C@@H]1[C@]1(OCO[C@@]15C[C@@H](OC)C1C[C@H]3[C@H]5[C@@H]1OC)[C@H](O)[C@@H]24 ... no
6) CCN1C[C@]2(COC(=O)c3ccccc3N3C(=O)C[C@H](C)C3=O)CC[C@H](OC)[C@@]34[C@@H]5C[C@H]6[C@H](OC)[C@H]5[C@](O)(C[C@@H]6OC)[C@@](O)([C@@H](OC)[C@@H]23)[C@@H]14 ... no
7) CC[N+](CC)(CC)CCOc1cccc(OCC[N+](CC)(CC)CC)c1OCC[N+](CC)(CC)CC ... no
8) C/C(=N\OC(=O)NC(C)C)c1sc(-c2ccccc2)nc1C ... no
9) O=C1C=C2C=C[C@H]3C[C@@]2(O1)[C@H]1CCCCN31 ... no
10) CN(C)[C@H]1C(=O)C(C(N)=O)=C(O)[C@]2(O)C(=O)C3=C(O)c4c(O)cccc4[C@@](C)(O)[C@H]3C[C@@H]12 ... no
11) CN1C(=O)C(=Cc2ccc(N3CCCCC3)o2)C(=O)N(C)C1=S ... no
12) O=C(CCCN1CCC2(CC1)C(=O)N(Cc1cccc(F)c1)CN2c1ccccc1)c1ccc(F)cc1 ... yes
13) CCC1=C(C[C@H]2NCCc3cc(OC)c(OC)cc32)C[C@H]2c3ccccc3CCN2C1 ... yes
14) C#CCN(C)[C@H](C)Cc1ccccc1 ... no
15) CC(C)C(=O)N1C2CCC1CC(O)(c1ccc(F)cc1)C2 (stereo unspecified) ... no
16) NC(=O)COc1c(F)cc(SCCNS(=O)(=O)c2ccccc2)cc1F ... no
17) Cn1c(O)c(C(c2ccccn2)c2c(O)n(C)c(=S)n(C)c2=O)c(=O)n(C)c1=S ... no
18) N[C@H](Cn1ccc(=O)[nH]c1=O)C(=O)O ... yes
19) CC(C)[N+](C)(CCC(C(N)=O)(c1ccccc1)c1ccccc1)C(C)C ... yes
20) Cc1ccccc1-n1c(O)c(C=Nc2ccc(N(C)C)cc2)c(=O)[nH]c1=O ... no
21) Cn1c(O)c(C(=N)COc2ccccc2)c(=O)n(C)c1=O ... no
22) C[N+](C)(C)CCCCCC[N+](C)(C)C ... no
23) N[C@H](CCCCCP(=O)(O)O)C(=O)O ... no
24) NC(N)=Nc1ccc2[nH]c3c(c2c1)C[C@]1(O)[C@@H]2Cc4ccc(O)c5c4[C@]1(CCN2CC1CC1)[C@@H]3O5 ... no
25) N[C@@H](Cn1cc(I)c(=O)[nH]c1=O)C(=O)O ... no
26) COc1cc2c(cc1OC)[C@H](C)NCC2 ... no
27) CC(=O)c1c(O)c(C)c(O)c(Cc2c(O)c3c(c(C(=O)/C=C\c4ccccc4)c2O)OC(C)(C)C=C3)c1O ... no
28) NC(=NCCc1ccc(I)cc1)SCCCc1cnc[nH]1 ... no
29) OCc1cnc[nH]1 ... no
30) CCC[C@@](C)(COC(N)=O)COC(=O)NC(C)C ... no
31) C[C@]12CC[C@H](O)C[C@@H]1CC[C@H]1[C@H]2CC[C@]2(C)C(=O)CC[C@@H]12 ... no
32) O=C(/C=C\c1ccc(Cl)cc1)N[C@@]12CCC(=O)[C@@H]3Oc4c(O)ccc5c4[C@@]31CCN(CC1CC1)[C@@H]2C5 ... yes
33) C[C@@]12CC[C@H]3[C@@H](CC[C@@H]4C[C@H](O)CC[C@]43C)[C@H]1CC[C@H]2O ... no
34) N[C@@H](Cn1oc(=O)[nH]c1=O)C(=O)O ... no
35) NC(N)=NCCC[C@H](N)C(=O)O ... no
36) C=C(C)CN1CC[C@@]23c4c5ccc(O)c4O[C@H]2c2[nH]c4ccccc4c2C[C@]3(O)[C@@H]1C5 ... no
